# metabolised at 0.5 h values compiled below
- Assay name: Clearance in rat liver microsomes assessed as compound metabolized after 30 mins
- Format: ADME, Microsome
- Cond: read-out: Activity

Study these solved cases before continuing.
• O=C(Nc1ccc(NC(=O)c2ccccc2Cl)cc1)c1ccccc1 = < 10%
• O=C(Nc1ccc(-c2cc(-c3ccccc3)ccn2)cc1)c1ccccc1Cl = 41%

Here is another compound to look at.
-- ask What does the record list as metabolised at 0.5 h for O=C(Nc1ccc(-c2nc(-c3ccccc3)c(C(F)(F)F)o2)cc1)c1ccccc1Cl ?
-- reply < 10%

====

- Study target: Protein smoothened (Homo sapiens)
- Sequence (Q99835 whole entry): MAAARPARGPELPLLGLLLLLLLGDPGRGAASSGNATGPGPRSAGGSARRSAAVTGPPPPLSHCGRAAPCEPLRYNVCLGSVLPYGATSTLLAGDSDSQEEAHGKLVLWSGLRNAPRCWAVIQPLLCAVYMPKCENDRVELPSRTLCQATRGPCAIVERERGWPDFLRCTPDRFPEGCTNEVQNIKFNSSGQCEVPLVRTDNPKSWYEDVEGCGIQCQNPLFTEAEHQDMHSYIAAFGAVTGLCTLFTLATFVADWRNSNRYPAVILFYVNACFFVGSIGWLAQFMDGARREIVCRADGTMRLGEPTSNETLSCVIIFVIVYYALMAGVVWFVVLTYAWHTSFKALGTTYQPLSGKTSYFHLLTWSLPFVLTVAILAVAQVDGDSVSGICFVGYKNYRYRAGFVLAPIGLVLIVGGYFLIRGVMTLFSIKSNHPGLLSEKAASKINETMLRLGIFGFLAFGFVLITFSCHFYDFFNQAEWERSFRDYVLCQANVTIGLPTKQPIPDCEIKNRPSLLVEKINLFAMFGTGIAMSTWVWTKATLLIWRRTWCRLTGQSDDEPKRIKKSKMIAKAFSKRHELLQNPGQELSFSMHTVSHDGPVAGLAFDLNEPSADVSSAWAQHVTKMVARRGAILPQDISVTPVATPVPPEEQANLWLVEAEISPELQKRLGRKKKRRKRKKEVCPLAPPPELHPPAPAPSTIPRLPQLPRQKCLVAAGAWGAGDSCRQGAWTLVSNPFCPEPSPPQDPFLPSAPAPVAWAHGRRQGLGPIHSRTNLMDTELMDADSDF
- Assay name: Antagonist activity at human SMO expressed in HEPM cells assessed as reduction of GLI expression after 24 hrs by Quantigene assay
pIC50: −log10 of the molar value.
Endpoint: pIC50

Study these solved cases before continuing.
* O=C(Nc1ccc(-c2cccc(-c3ccccc3)c2)cc1)c1ccccc1Cl | 8.19
* O=C(Nc1ccc(-c2nc(-c3ccccc3)c(C(F)(F)F)o2)cc1)c1ccccc1Cl | 7.51
* O=C(Nc1ccc(/C=C/c2ccccc2)cc1)c1ccccc1Cl | 7.31
* O=C(Nc1ccc(-c2cncc(-c3ccccc3)c2)cc1)c1ccccc1Cl | 7.55
* O=C(Nc1ccc(-c2nnc(-c3ccccc3)o2)cc1)c1ccccc1Cl | 7.05
* O=C(Nc1ccc(-c2coc(-c3ccccc3)n2)cc1)c1ccccc1Cl | 7.03

(1) O=C(Nc1ccc(-c2ccnc(-c3ccccc3)c2)cc1)c1ccccc1Cl
(2) O=C(Nc1ccc(-c2cc(-c3ccccc3)ccn2)cc1)c1ccccc1Cl
(3) O=C(Nc1ccc(CC(O)c2ccccc2)cc1)c1ccccc1Cl (racemic)
-- ask Put the entries in order of pIC50, starting with the largest number. Record the ranking as a list of labels in the requested order.
-- reply 2, 3, 1

====

- Study target: Protein smoothened (Homo sapiens)
- Assay name: Antagonist activity at human SMO expressed in HEPM cells assessed as reduction of GLI expression after 24 hrs by Quantigene assay
- Format: functional, cell-based
Endpoint: IC50 (nM)

Study these solved cases before continuing.
- O=C(Nc1ccc(NC(=O)c2ccccc2Cl)cc1)c1ccccc1: 13
- O=C(Nc1ccc(-c2cccc(-c3ccccc3)n2)cc1)c1ccccc1Cl: 33
- Cc1oc(-c2ccc(NC(=O)c3ccccc3Cl)cc2)nc1-c1ccccc1: 44
- O=C(Nc1ccc(-c2csc(-c3ccccc3)n2)cc1)c1ccccc1Cl: 109
- O=C(Nc1ccc(-c2nc(-c3ccccc3)co2)cc1)c1ccccc1Cl: 63
- O=C(Nc1ccc(-c2cc(-c3ccccc3)ncn2)cc1)c1ccccc1Cl: 48
- O=C(Nc1ccc(-c2ccnc(-c3ccccc3)n2)cc1)c1ccccc1Cl: 27
- O=C(Nc1ccc(-c2nccc(-c3ccccc3)n2)cc1)c1ccccc1Cl: 37
- O=C(Nc1ccc(-c2nc(-c3ccccc3)cs2)cc1)c1ccccc1Cl: 27

(A) O=C(Cc1ccc(NC(=O)c2ccccc2Cl)cc1)c1ccccc1
(B) O=C(Nc1ccc(-c2ncc(-c3ccccc3)o2)cc1)c1ccccc1Cl
-- ask Which has the higher IC50, A or B ? Field: selected label. Fill in the label of the entry you choose.
-- reply A

====

- Assay name: Metabolic stability in rat hepatocyte assessed as compound remaining at 30 mins
- Type: ADME, cell-based
- Cond: hepatocytes, read-out: Stability
Endpoint: remaining at 0.5 h (%)
Field: numeric (%). Do not append units.

-- ask What does the record list as remaining at 0.5 h for O=C(Nc1ccc(NC(=O)c2ccccc2Cl)cc1)c1ccccc1 ?
-- reply 3
